Data provenance: patent US9505716B2

target: recombinant human serotonin transporter expressed in HEK-293 cells (Homo sapiens, UniProt P31645); construct: expressed in transfected cells; host or cells: HEK-293; experiment: Serotonin functional uptake assay for human reuptake transporter; assay type: cell-based; settings: functional uptake of serotonin; read-out: hSERT (IC50 nM)
Sequence (P31645 whole entry): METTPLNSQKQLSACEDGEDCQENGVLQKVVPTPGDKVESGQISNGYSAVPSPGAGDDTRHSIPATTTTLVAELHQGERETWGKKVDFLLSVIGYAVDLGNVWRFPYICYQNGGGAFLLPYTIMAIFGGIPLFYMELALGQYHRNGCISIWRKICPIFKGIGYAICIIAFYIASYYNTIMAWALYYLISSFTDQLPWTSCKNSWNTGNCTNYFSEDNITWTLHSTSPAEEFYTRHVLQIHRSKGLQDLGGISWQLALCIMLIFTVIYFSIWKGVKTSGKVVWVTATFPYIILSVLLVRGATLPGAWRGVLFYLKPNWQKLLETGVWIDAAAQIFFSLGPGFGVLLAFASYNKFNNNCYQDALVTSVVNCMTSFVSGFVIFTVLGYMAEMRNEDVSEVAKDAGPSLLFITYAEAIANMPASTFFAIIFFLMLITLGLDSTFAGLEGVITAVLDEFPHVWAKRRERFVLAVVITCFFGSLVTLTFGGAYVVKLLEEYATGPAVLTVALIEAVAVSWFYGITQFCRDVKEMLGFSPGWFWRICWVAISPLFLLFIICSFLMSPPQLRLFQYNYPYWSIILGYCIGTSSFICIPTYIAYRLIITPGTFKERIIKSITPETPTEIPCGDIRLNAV
Parameter measured: IC50

Take a look at these entries with their results.
Reported IC50, molecule Clc1ccc(C2(C3CCNC3)CCCCC2)cc1Cl (single isomer, unassigned) [Compound 1] : ____
< 1 nM

Another molecule: CO[C@]1(C)CC[C@](c2ccc(Cl)c(Cl)c2)([C@@H]2CCNC2)CC1 [Compound 26]
< 100 nM

Another molecule: Clc1ccc(C2(C3CCNC3)CCOCC2)cc1Cl (centres unmarked) [Compound 16]
< 10 nM

Another molecule: O[C@H]1CC[C@](c2ccc(Cl)c(Cl)c2)([C@@H]2CCNC2)CC1 [Compound 24]
< 1 nM

New cases:
Reported IC50, molecule CO[C@]1(C)CC[C@@](c2ccc(Cl)c(Cl)c2)([C@H]2CCNC2)CC1 [Compound 28] : ____
< 100 nM

Another molecule: Clc1ccc(C2(C3CCNC3)CCCC2)cc1Cl (single isomer, unassigned) [Compound 6]
< 10 nM

Another molecule: CO[C@]1(C)CC[C@@](c2ccc(Cl)c(Cl)c2)([C@@H]2CCNC2)CC1 [Compound 27]
< 10 nM

Another molecule: O[C@H]1CC[C@@](c2ccc(Cl)c(Cl)c2)([C@H]2CCNC2)CC1 [Compound 21]
< 10 nM

Another molecule: C[C@]1(O)CC[C@](c2ccc(Cl)c(Cl)c2)([C@@H]2CCNC2)CC1 [Compound 19]
< 10 nM

Another molecule: Clc1ccc(C2(C3CCNC3)CCC2)cc1Cl (single isomer, unassigned) [Compound 7]
< 100 nM

Another molecule: Clc1ccc(C2(C3CCNC3)CCCC2)cc1Cl (single isomer, unassigned) [Compound 5]
< 100 nM
